experiment: Binding affinity of compound to P-glycoprotein recombinant domain of prenylated xanthones was evaluated
This section presents compounds with their documented Kd values.
Report the value in µM with no unit label.

Worked set:
>  <compound>
COCCOCOc1cc(O)c2c(=O)cc(-c3ccccc3)oc2c1CC=C(C)C

>  <reported endpoint>
Kd

>  <endpoint value>
0.1

$$$$
>  <compound>
COc1cc(O)c2c(=O)c3c(OC)c(OC)ccc3oc2c1CC=C(C)C

>  <reported endpoint>
Kd

>  <endpoint value>
0.59

$$$$
>  <compound>
C=CC(C)(C)c1c(OC)cc2oc3ccc(OC)c(OC)c3c(=O)c2c1O

>  <reported endpoint>
Kd

>  <endpoint value>
0.25

$$$$
>  <compound>
COc1cc2oc3ccc(OC)c(OC)c3c(=O)c2c2c1C(C)(C)C(C)O2 (stereo not given)

>  <reported endpoint>
Kd

>  <endpoint value>
24.8

$$$$

Q: Recorded Kd of COc1cc(O)c2c(=O)c3c(OC)c(OC)ccc3oc2c1 , please.
Result: 28.8

Q: Recorded Kd of COCCOCOc1cc(OCC=C(C)C)c2c(=O)cc(-c3ccccc3)oc2c1 , please.
Result: 6.1

Q: Recorded Kd of C=CC(C)(C)c1c(OCOCCOC)cc2oc(-c3ccccc3)cc(=O)c2c1O , please.
Result: 0.1

Q: Recorded Kd of COCCOCOc1cc(O)c2c(=O)cc(-c3ccccc3)oc2c1 , please.
Result: 8.05

Q: Recorded Kd of COc1cc2oc3ccc(OC)c(OC)c3c(=O)c2c(O)c1CC=C(C)C , please.
Result: 0.39

Q: Recorded Kd of COc1cc(OCC=C(C)C)c2c(=O)c3c(OC)c(OC)ccc3oc2c1 , please.
Result: 13.9

Provenance of the data: ChEMBL document CHEMBL1133198
